Test Readout: melting point

Field: example entries. Status: answers known.
{"Compound": "CN(C)c1ccc(CNc2ncnc3c2ncn3C2OC(CO)C(O)C2O)cc1 (stereo not drawn)", "Result": "170 to 171 °C"}
{"Compound": "Cc1cccc(Nc2cc(Nc3cccc(OCC(N)=O)c3)ncn2)c1", "Result": "192 to 194 °C"}

API: the following record is the query input.
Consider the compound CCOC(=O)C1=CC(C)C2=c3c1cccc3=C1N=NC=C12 (stereo not drawn) and give its measured melting point.
107 to 109 °C

###

Test Readout: melting point

{"Compound": "CCCNCC(O)COc1ccc2c(=O)cc(-c3ccccc3)oc2c1 (stereo not given)", "melting point": "145 to 147 °C"}
{"Compound": "CCOC1=NS(=O)(=O)C(C#N)=C1N", "melting point": "228 to 229 °C"}
{"Compound": "CCC(Cc1ccc(OC)c(OCCc2ccccc2)c1)NC(=O)OC(C)(C)C (stereo not given)", "melting point": "88.5 to 89.5 °C"}

Each of the following entries comes with a recorded value; kindly state melting point for each.
1. CN1CCN(C(=O)Cc2c(-c3ccc(Cl)cc3)nc3ccccn23)CC1
2. CCOc1ccc(Nc2nc(=O)cc(N)n2-c2ccccc2)cc1

["175 °C", "111 to 113 °C"]

###

Test Readout: melting point

{"Smiles Entry": "CCCCOC(=O)c1ccc2ccc(C(=O)O)nc2c1OC(=O)C(C)(C)C", "melting point": "158 °C"}
{"Smiles Entry": "Cc1cc(-n2ccnc2)c2cccc(OCc3c(Cl)ccc(S(=O)(=O)N4CCC[C@H]4C(=O)N4CCN(c5ccccn5)CC4)c3Cl)c2n1", "melting point": "108 °C"}
{"Smiles Entry": "COc1ccc(-c2ccc3c(c2)C(C)(C)CCC3(C)C)cc1-c1ccc(C(=O)O)cc1", "melting point": "148 to 152 °C"}
{"Smiles Entry": "CCN1c2ncc(CCc3ccc(NS(C)(=O)=O)cc3)cc2C(=O)N(C)c2ccc(Cl)nc21", "melting point": "199 to 204 °C"}
{"Smiles Entry": "COC(=O)c1ccccc1S(=O)(=O)NC(=O)Nc1nc(C)c2cc(C)oc2n1", "melting point": "197 to 198 °C"}

Turning now to a further molecule:
Look up melting point: CN(C)CC(=O)NCc1ccc(-c2cc3c(Nc4ccc(F)c(Cl)c4)ncnc3[nH]2)cc1
320 to 325 °C

###

Test Readout: melting point

These recorded examples may help you get a feel for the data.
{"Molecule": "C=CCOc1cc(C(O)(C(F)(F)F)C(F)(F)F)cc2c(C)cc(=O)[nH]c12", "melting point": "214 to 216 °C"}
{"Molecule": "COC(=O)c1oc2c(sc3ccccc32)c1O", "melting point": "124 to 125 °C"}
{"Molecule": "CN1C(=S)C(c2ccc(OC(F)(F)F)cc2)(c2cccc(-c3cccnc3F)c2)N=C1N (configuration not stated)", "melting point": "89 to 99 °C"}
{"Molecule": "C=CNC(=S)n1nc(Oc2ncc(C(F)(F)F)cc2Cl)cc1C", "melting point": "90 to 92 °C"}
{"Molecule": "Cc1nc(C(C)(C)C)c[nH]1", "melting point": "155 to 156 °C"}
{"Molecule": "CC(C)OC(=O)c1cc(-n2c(=O)c3c(n(C)c2=O)CCCC3)ccc1Cl", "melting point": "136 to 138 °C"}
{"Molecule": "CCc1cccc2c1N(CC(=O)N1CC3CCC(CC3)C1)C(=O)C(NC(=O)Nc1cccc(C)c1)N=C2c1ccccc1F (configuration not stated)", "melting point": "163 to 168 °C"}
{"Molecule": "O=C(O)C(CN1C(=O)CNC1=O)CS(=O)(=O)c1ccc(-c2ccc(Cl)cc2)cc1 (configuration not stated)", "melting point": "188 to 190 °C"}

For each of the molecules below, note its melting point.
1. CSc1nn2c(N)cc(C)nc2c1S(=O)(=O)c1ccc2ccccc2c1
2. CCOC(=O)c1cnn(-c2ccc(Oc3ccc(C)cc3O)cc2)c1N
3. CCN(CC)C(=O)COC(=O)c1cccc(NC(=O)C(CSC(C)=O)Cc2ccccc2)c1 (configuration not stated)
4. COc1cc(OC)c2c(=O)[nH]c(-c3cccc(OCCO)c3)nc2c1

1: > 230 °C; 2: 142 to 144 °C; 3: 143 to 144 °C; 4: 245 to 246 °C

The measured values listed here are drawn from a melting point compilation (Tetko et al.; mined from patent text by program, amines drawn as free bases though some values may be those of a salt).
